# test description: yeast display, Sf9 membrane polyspecificity reagent, FACS + sequencing; frameworks hold sequencing errors
measured quantity: polyreactivity (PSR sort gate)

Solved cases (4 shown):
QVQLVESGGGLVQAGGSLRLSCAASGITFNRYVMGWYRQAPGKERELVAANSRTGGSTYYADSVKGRFTISRDTGKNTVYLQMNILKPEDTAVYYCAAATSPGIYDYWGQGTQVTVSS = high polyreactivity
QVQLVESGGGLVQAGGSLRLSCAASGSISNVYDMGWYRQAPGKERELVATISRTGDSTYYADSVKGRFTISRDNAKNTVYLQMNSLKPEDTAVYYCAARFYWWGLGDDYWGQGTQVTVSS = high polyreactivity
QVQLVESGGGLVQAGGSLRLSCAASGSTFYSYAMGWYRQAPGKERELVAAISWSGGSTYYADSVKGRFTISRDNAKNTVYLQMNSLKPEDTAVYYCAATRTRGYDGYGMYYWGQGTQVTVSS = high polyreactivity
QVQLVESGGGLVQAGGSLRLSCAATGGTFTFYAMGWYRQAPGKERELVATINWSGGSTYYADSVKGRFTISRDNAKITVYLQMNSLKPEDTAVYYCNAAWPYKSVEYWGQGTQVTVSS = low polyreactivity

q: Read the entry "QVQLVESGGGLVQAGGSLRLSCAASGSIFNWYAMGWYRRAPGKERELVAAISQSGTRTFYADSVKGRFTISRDNAKNTVYLQMNSLKPEDTAVYYCNTVKAGYDGYDRDYWGQGTQVTVSS" and write its reported polyreactivity (PSR sort gate).
a: high polyreactivity

q: Read the entry "QVQLVESGGGLVQAGGSLRLSCAASGFTIYHNAMGWYRQAPGKERELVAAISSSGDSTYYADSVKGRFTISRDNAKNTVYLQMNSLKPEDTAVYYCNDYFYYLSLYYYYWFNYDYWGQGTQVTVSS" and write its reported polyreactivity (PSR sort gate).
a: low polyreactivity

q: Read the entry "QVQLVESGGGLVQAGGSLRLSCAASGYNFAYYAMGWYRQAPGTERELVAAISWSGSSTYYADSVKGRFTISRDNAKNTVYLQMNSLKPEDTAVYYCAKGYTSYNLGKYGYCGQGTQVTVSS" and write its reported polyreactivity (PSR sort gate).
a: low polyreactivity

q: Read the entry "QVQLVESGGGLVQAGGSLRLSCAASGRIFDIYAMGWYRQAPGKERELVAGITSVGSTNYADSVKGRFTISRDNAKNTVYLQMNSLKPEDTAFYYCAADTSVHSEVDYWGQGTQGTVSS" and write its reported polyreactivity (PSR sort gate).
a: low polyreactivity

q: Read the entry "QVQLVESGGGLVQAGGSLRLSCSASGSIFVWYDMGWYRQAPGKERELVATISLSGVSTYYADSVKGRFTISRDNAKNTVYLQMNSLKPEDTAVYYCNKDDPVDGPLYFRKYDYWGQGTQVTVSS" and write its reported polyreactivity (PSR sort gate).
a: low polyreactivity

q: Read the entry "QVQLVESGGGLVQAGGSLRLSCAASGRTFWYYDMGWSRQAPGKERELVAAISRSGGSTYYADSVKGRFTISRDNAKNTVYLQMNSLKPEDTAVYFCAAVSYGYWVTEYYYWGQGSQVTVSS" and write its reported polyreactivity (PSR sort gate).
a: high polyreactivity

q: Read the entry "QVQLVESGGGLVQAGGSLRLSCAASGFTFGAYAKGWSRQAPGKEWELVASISWSGTSTYYADSVKGRFTISRDNAKNTVYLQMNSLKPEDTAVYYCAAGYRSTRYDYWGQGTQVTVSS" and write its reported polyreactivity (PSR sort gate).
a: high polyreactivity
